Data provenance is patent US10925971B2.

# Experimental Target: T1, monomeric human PRLR (hPRLR.mmh; SEQ ID NO:401) (Homo sapiens, UniProt P16471)
# T1 construct: soluble monomeric (hPRLR.mmh); mmh (myc-myc-hexahistidine) (C)
# T1 sequence (P16471 with tags, fused parts or gaps): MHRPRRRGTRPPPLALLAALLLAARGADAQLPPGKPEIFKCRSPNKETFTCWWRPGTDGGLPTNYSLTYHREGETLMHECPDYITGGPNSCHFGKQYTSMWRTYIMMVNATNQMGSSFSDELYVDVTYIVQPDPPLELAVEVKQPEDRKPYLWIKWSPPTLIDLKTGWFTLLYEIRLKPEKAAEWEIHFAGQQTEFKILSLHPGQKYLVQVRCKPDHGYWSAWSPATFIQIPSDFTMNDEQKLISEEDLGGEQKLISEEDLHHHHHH
# Protocol Description: Surface plasmon resonance (Biacore T200), antibody-capture format
# Assay type: binding
# Protocol Conditions: 25° C., analyte hPRLR.mmh
Measurement Label: kd
Field: value (include unit after the number)

QUERY: Need kd, item H1H6801P: fully human anti-PRLR antibody, human IgG1 Fc; HCVR/LCVR SEQ ID NOs 210/218 (antibody, V domains shown) VH: QVQLQQSGPGLVKPSQTLSLTCVISGDSVSSNTAWNWVRQSPSRGLEWLGRTYYRSKWYNDYAVSVKSRITINPDTSKNQFSLLMNSVTPEDTAVYYCARVVRGLNYFDYWGQGTLVTVSS VL: DIVMTQSPDSLAVSLGERATINCKSSQSVLYNSNNKNYLAWYQQKPGQPPKLLIYWSSSRESGVPDRFSGSGSGTDFTLTISGLQAEDVAIYYCQQYSTIPYTFGQGTKLEIK
RESULT: 0.000756 s⁻¹

QUERY: What value of measured kd is listed for H1H6785P: fully human anti-PRLR antibody, human IgG1 Fc; HCVR/LCVR SEQ ID NOs 98/106 (antibody, V domains shown) VH: EVQLVESGGGLVQPGGSLRLSCAASGFTFSSYEMNWVRQAPGKGLEWISYISSRGGTIYYADSIKGRFTIYRDNARNSLYLQMNSLRAEDTAIYYCARLSGVDIFDIWGQGTMVTVSS VL: DIQMTQSPSSLSASVGDRVTITCRASQGISNYLAWYQQKPGKVPKLLIYFASTLQSGVPSRFSGGGSGTDFTLTISSLQPEDVATYYCQRYNSAPLTFGGGTKVEIK ?
RESULT: 0.000171 s⁻¹
